system: K562 (human chronic myelogenous leukemia) cells; test: K562 cell growth inhibition after 24 h; type: cell-based; conditions: Homo sapiens, K562, 24 h, read-out: IC50 determined for 24 h of growth
pIC50: −log10 of the molar value.

COMPOUND	pIC50
COc1cc(C(=O)c2c(N)sc3cnccc23)cc(OC)c1OC [Compound 5]	6.30
CCOC(=O)N1CCc2c(sc(N)c2C(=O)c2cc(OC)c(OC)c(OC)c2)C1 [Compound 4g]	7.10

* * *

test system: L1210, FM3A, Molt/4 and CEM cells; test: Antiproliferative activity summarised over the panel of four cancer cell lines; type: cell-based, murine and human; settings: read-out: IC50 (span over the four cell lines)
PARAMETER: IC50

MOLECULE	RECORDED_VALUE
COc1cc(C(=O)c2c(N)sc3c2CCN(Cc2ccccc2)C3)cc(OC)c1OC [Compound 4d]	> 10000 nM
CCOC(=O)N1CCc2c(sc(N)c2C(=O)c2cc(OC)c(OC)c(OC)c2)C1 [Compound 4g]	57 to 440 nM
CCCN1CCc2c(sc(N)c2C(=O)c2cc(OC)c(OC)c(OC)c2)C1 [Compound 4c]	> 10000 nM
CCN1CCc2c(sc(N)c2C(=O)c2cc(OC)c(OC)c(OC)c2)C1 [Compound 4b]	1700 to 2100 nM
CCNC(=S)N1CCc2c(sc(N)c2C(=O)c2cc(OC)c(OC)c(OC)c2)C1 [Compound 4t]	4800 to 6900 nM
COc1cc(C(=O)c2c(N)sc3c2CCN(C(C)=O)C3)cc(OC)c1OC [Compound 4e]	1100 to 3900 nM
COc1cc(C(=O)c2c(N)sc3c2CCN(C)C3)cc(OC)c1OC [Compound 4a]	> 10000 nM
CNC(=S)N1CCc2c(sc(N)c2C(=O)c2cc(OC)c(OC)c(OC)c2)C1 [Compound 4s]	1600 to 4900 nM
COc1cc(C(=O)c2c(N)sc3c2CCN(C(=S)NC2CCCCC2)C3)cc(OC)c1OC [Compound 4w]	730 to 1100 nM
